Where do the numbers come from? From the RNAGym collection of RNA variant scans (doi:10.1073/pnas.2313332121).

B1: TPR t1 (parent)
chain: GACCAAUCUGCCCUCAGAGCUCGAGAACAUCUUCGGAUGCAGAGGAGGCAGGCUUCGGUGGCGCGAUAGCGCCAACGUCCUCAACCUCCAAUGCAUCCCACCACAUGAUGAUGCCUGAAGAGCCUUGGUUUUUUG

- Variants of: B1
- measurement.notes: polymerase ribozyme fitness, log enrichment relative to wild type (log ratio); higher = more active; in vitro selection for triplet polymerase activity
Binning rule for recorded polymerase ribozyme fitness (log ratio): low group (below -4), middle group (-4 to below -1), high group (-1 or more)

Field: example entries. Status: answers known.
INSERT INTO results (mutation, class_assignment) VALUES
  ('G52U C73U U96G A121G', 'high group'),
  ('C22A A75U U78A U116G', 'low group'),
  ('C12U G71A A111C C115A U131G U133A', 'high group'),
  ('A41U U87G', 'high group');

(Q) Quick check: band for G110U U112C
(A) middle group

(Q) Tag the class for C15U G69A G113C
(A) low group

(Q) Exam item: assign C13A C49U G51U G69U A111U G120A to the correct category.
(A) low group
